MEASURED_TARGET: recombinant integrin α4β7 (Homo sapiens, UniProt P13612+P26010, DEL724-798)
Construct: purchased R&D Systems 5397-A3-050
Sequence (P13612 34-970 limits assumed, stated change not applied): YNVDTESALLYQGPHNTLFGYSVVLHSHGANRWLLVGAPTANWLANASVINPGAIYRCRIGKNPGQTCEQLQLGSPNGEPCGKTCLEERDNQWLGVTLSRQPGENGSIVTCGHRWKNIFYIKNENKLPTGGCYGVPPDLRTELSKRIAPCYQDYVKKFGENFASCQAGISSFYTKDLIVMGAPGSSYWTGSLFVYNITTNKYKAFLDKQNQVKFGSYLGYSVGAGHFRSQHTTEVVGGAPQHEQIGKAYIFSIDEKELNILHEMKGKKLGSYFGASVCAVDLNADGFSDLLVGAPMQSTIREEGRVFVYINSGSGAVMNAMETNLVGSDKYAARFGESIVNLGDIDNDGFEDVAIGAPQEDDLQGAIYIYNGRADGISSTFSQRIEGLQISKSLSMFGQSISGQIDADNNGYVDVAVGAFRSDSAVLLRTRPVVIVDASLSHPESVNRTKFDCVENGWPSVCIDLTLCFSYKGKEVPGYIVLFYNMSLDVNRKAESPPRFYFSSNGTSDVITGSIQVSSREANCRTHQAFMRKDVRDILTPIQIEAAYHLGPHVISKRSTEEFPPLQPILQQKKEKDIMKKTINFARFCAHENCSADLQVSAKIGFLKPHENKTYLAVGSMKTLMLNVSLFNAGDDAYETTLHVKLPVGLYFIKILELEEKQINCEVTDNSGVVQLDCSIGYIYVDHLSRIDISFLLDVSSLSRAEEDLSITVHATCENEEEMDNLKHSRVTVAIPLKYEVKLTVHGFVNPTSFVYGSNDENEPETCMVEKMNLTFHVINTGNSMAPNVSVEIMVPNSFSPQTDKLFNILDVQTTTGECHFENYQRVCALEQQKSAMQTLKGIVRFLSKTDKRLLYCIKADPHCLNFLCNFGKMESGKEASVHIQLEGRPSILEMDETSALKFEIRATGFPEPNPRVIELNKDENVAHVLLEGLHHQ
Sequence (P26010 20-723 limits assumed, stated change not applied): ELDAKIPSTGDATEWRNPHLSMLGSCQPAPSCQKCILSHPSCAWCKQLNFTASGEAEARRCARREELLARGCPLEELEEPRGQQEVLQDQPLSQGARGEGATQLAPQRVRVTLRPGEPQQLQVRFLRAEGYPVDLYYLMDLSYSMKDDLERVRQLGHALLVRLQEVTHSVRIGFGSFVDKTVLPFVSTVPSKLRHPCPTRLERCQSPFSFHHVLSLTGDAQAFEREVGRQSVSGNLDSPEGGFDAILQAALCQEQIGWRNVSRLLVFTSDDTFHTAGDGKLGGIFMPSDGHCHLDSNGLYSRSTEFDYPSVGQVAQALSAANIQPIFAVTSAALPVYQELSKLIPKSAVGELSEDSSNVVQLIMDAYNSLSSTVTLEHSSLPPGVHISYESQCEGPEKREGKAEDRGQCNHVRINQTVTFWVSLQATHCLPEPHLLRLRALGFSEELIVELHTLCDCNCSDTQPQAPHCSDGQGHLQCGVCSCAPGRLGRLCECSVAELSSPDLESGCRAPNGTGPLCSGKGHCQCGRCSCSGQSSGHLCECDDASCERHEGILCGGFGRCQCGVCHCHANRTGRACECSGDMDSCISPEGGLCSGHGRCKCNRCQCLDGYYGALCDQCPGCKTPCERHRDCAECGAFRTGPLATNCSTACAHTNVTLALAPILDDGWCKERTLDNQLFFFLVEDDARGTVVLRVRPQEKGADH
METHOD: Integrin α4β7—MAdCAM-1 ELISA competition assay
Assay type: binding
ASSAY_CONDITIONS: read-out: ELISA a4b7 Assay IC50
In this section we review reported IC50 values for a set of compounds.
Numbers only here, please. The scale is nM.

Supply reported IC50 belonging to this compound: CC(C)C[C@@H]1NC(=O)c2ccc(Br)c(c2)CNC(=O)[C@H](Cc2ccc(O)cc2)NC(=O)[C@@H]2CCCN2[C@H](C(=O)NC(C)(C)C)[C@H](C)NC(=O)[C@H]([C@@H](C)O)NC(=O)[C@H](CC(=O)O)NC1=O
162

Supply reported IC50 belonging to this compound: CC[C@@H](C)[C@@H]1NC(=O)[C@H](CC(=O)O)NC(=O)[C@H](CC(C)C)NC(=O)C[C@H](CCCCN)NC(=O)[C@H](Cc2ccc(CN)cc2)NC(=O)[C@@H]2CCCN2[C@H](C(=O)NC(C)(C)C)[C@H](C)NC1=O
89

Supply reported IC50 belonging to this compound: CC[C@H](C)[C@@H]1NC(=O)[C@H](CC(=O)O)NC(=O)[C@H](CC(C)C)NC(=O)[C@@H](CCCCN)N(C)C(=O)[C@H](Cc2ccc(O)cc2)NC(=O)[C@@H]2CCCN2[C@H](C(=O)NC(C)(C)C)[C@H](C)NC1=O
117

Supply reported IC50 belonging to this compound: Cc1noc(C)c1-c1ccccc1C[C@H]1NC(=O)[C@@H]2CCCN2[C@H](C(=O)NC(C)(C)C)[C@H](C)NC(=O)[C@H]([C@@H](C)O)NC(=O)[C@H](CC(=O)O)NC(=O)[C@H](CC(C)C)NC(=O)C[C@H](CCCCN)NC1=O
134

----------
In this section we review reported pIC50 values for a set of molecules.
MEASURED_TARGET: recombinant integrin α4β7 (Homo sapiens, UniProt P13612+P26010, DEL724-798)
Construct: purchased R&D Systems 5397-A3-050
METHOD: Integrin α4β7—MAdCAM-1 ELISA competition assay
Assay type: binding
ASSAY_CONDITIONS: read-out: ELISA a4b7 Assay IC50
As a rule, pIC50 stands for the negative log10 of the concentration, concentration in M.

Solved entries (count: 4):
- STRUCTURE_NOTATION: "C=CCOc1ccc(C[C@@H]2NC(=O)[C@@H]3CCCN3[C@H](C(=O)NC(C)(C)C)[C@H](C)NC(=O)[C@H]([C@@H](C)O)NC(=O)[C@H](CC(=O)O)NC(=O)[C@H](CC(C)C)NC(=O)[C@@H](C(C)C)NC2=O)cc1"
  pIC50: 6.75
- STRUCTURE_NOTATION: "CC(C)C[C@@H]1NC(=O)c2cccc(c2)CNC(=O)[C@@H]2CCCN2[C@H](C(=O)NC(C)(C)C)[C@H](C)NC(=O)[C@H]([C@@H](C)O)NC(=O)[C@H](CC(=O)O)NC1=O"
  pIC50: 6.90
- STRUCTURE_NOTATION: "COc1ccc(-c2ccccc2C[C@@H]2NC(=O)[C@@H]3CCCN3[C@H](C(=O)NC(C)(C)C)[C@H](C)NC(=O)[C@H]([C@@H](C)O)NC(=O)[C@H](CC(=O)O)NC(=O)[C@H](CC(C)C)NC(=O)[C@H]3CCCCN3C2=O)cc1"
  pIC50: 7.48
- STRUCTURE_NOTATION: "CC(C)C[C@@H]1NC(=O)[C@H](Cc2ccc(O)cc2)NC(=O)[C@@H]2CCCN2[C@H](C(=O)NC(C)(C)C)[C@H](C)NC(=O)[C@H](C(C)(C)S)NC(=O)[C@H](CC(=O)O)NC1=O"
  pIC50: 6.95

Supply reported pIC50 belonging to this molecule: CC(C)C[C@@H]1NC(=O)C[C@H](CCCCN)NC(=O)[C@H](Cc2ccccc2)N(C)C(=O)[C@@H]2CCCN2[C@H](C(=O)NC(C)(C)C)[C@H](C)NC(=O)[C@H]([C@@H](C)O)NC(=O)[C@H](CC(=O)O)NC1=O
6.93

Supply reported pIC50 belonging to this molecule: CC(C)C[C@@H]1NC(=O)CN(C)C(=O)[C@H](Cc2cscn2)NC(=O)[C@@H]2CCCN2[C@H](C(=O)NC(C)(C)C)[C@H](C)NC(=O)[C@H]([C@@H](C)O)NC(=O)[C@H](CC(=O)O)NC1=O
6.90

Supply reported pIC50 belonging to this molecule: CC(C)C[C@@H]1NC(=O)[C@H](Cc2csc(-c3ccccn3)n2)NC(=O)[C@@H]2CCCN2[C@H](C(=O)NC(C)(C)C)[C@H](C)NC(=O)[C@H]([C@@H](C)O)NC(=O)[C@H](CC(=O)O)NC1=O
6.90

Supply reported pIC50 belonging to this molecule: CC(C)C[C@@H]1NC(=O)C[C@H](CCCCN)NC(=O)[C@H](Cc2ccc(CN)cc2)NC(=O)[C@@H]2CCCN2[C@H](C(=O)NC(C)(C)C)[C@H](C)NC(=O)[C@H](C(C)C)NC(=O)[C@H](CC(=O)O)NC1=O
7.26

Supply reported pIC50 belonging to this molecule: CC(C)C[C@@H]1NC(=O)[C@H]2C[C@H](O)CN2C(=O)[C@H](Cc2ccc(CN)cc2)NC(=O)[C@@H]2CCCN2[C@H](C(=O)NC(C)(C)C)[C@H](C)NC(=O)[C@H]([C@@H](C)O)NC(=O)[C@H](CC(=O)O)NC1=O
6.99
